Assignment: determine reported MIC for the given compounds.
Tested on: Morganella
Test: Minimum inhibitory concentration required for antibacterial activity against Morganella
Assay type: functional
Note: unit µg/mL is implicit; provide only the numeric part.

Query: State the recorded MIC for this entry: `C[C@@H](O)[C@H]1C(=O)N2C(C(=O)O)=C(CC[C@H](N)C(=O)O)S[C@H]12`
Reply: 64

Query: State the recorded MIC for this entry: `C[C@H](N)C1=C(C(=O)O)N2C(=O)[C@H]([C@@H](C)O)[C@H]2S1`
Reply: 64

Query: State the recorded MIC for this entry: `CSCC[C@@H](N)C1=C(C(=O)O)N2C(=O)[C@H]([C@@H](C)O)[C@H]2S1`
Reply: 4

Query: State the recorded MIC for this entry: `CSC[C@H](N)C1=C(C(=O)O)N2C(=O)[C@H]([C@@H](C)O)[C@H]2S1`
Reply: 128

---

Assignment: determine reported MIC for the given compounds.
Tested on: Enterococcus faecalis
Experiment: Minimum inhibitory required for antibacterial activity against Streptococcus faecalis
Type: functional
Note: unit µg/mL is implicit; provide only the numeric part.

Query: Under Enterococcus faecalis: MIC value of `CSC[C@@H](N)C1=C(C(=O)O)N2C(=O)[C@H]([C@@H](C)O)[C@H]2S1` ?
Reply: 16

Query: Under Enterococcus faecalis: MIC value of `C[C@@H](O)[C@H]1C(=O)N2C(C(=O)O)=C(CSC[C@H](N)C(=O)O)S[C@H]12` ?
Reply: 22.6

Query: Under Enterococcus faecalis: MIC value of `C[C@@H](O)[C@H]1C(=O)N2C(C(=O)O)=C(CN)S[C@H]12` ?
Reply: 32

Query: Under Enterococcus faecalis: MIC value of `CSC[C@H](N)C1=C(C(=O)O)N2C(=O)[C@H]([C@@H](C)O)[C@H]2S1` ?
Reply: 90.5

---

Assignment: determine reported MIC for the given compounds.
System: Morganella
Assay: Minimum inhibitory concentration required for antibacterial activity against Morganella
Type: functional
Note: unit µg/mL is implicit; provide only the numeric part.

Query: Under Morganella: MIC value of `CSCC[C@H](N)C1=C(C(=O)O)N2C(=O)[C@H]([C@@H](C)O)[C@H]2S1` ?
Reply: 64.1

Query: Under Morganella: MIC value of C[C@@H](O)[C@H]1C(=O)N2C(C(=O)O)=C(SCCOC(N)=O)S[C@H]12 [Sch-34343] ?
Reply: 2

Query: Under Morganella: MIC value of `C[C@@H](N)C1=C(C(=O)O)N2C(=O)[C@H]([C@@H](C)O)[C@H]2S1` ?
Reply: 32

Query: Under Morganella: MIC value of `CSC[C@@H](N)C1=C(C(=O)O)N2C(=O)[C@H]([C@@H](C)O)[C@H]2S1` ?
Reply: 2

---

System: Morganella
Assay: Minimum inhibitory concentration required for antibacterial activity against Morganella
Format: functional
Readout type: MIC (mg/L)
Note: unit mg/L is implicit; provide only the numeric part.

Query: State the recorded MIC for this entry: `C[C@@H](O)[C@H]1C(=O)N2C(C(=O)O)=C(CC[C@@H](N)C(=O)O)S[C@H]12`
Reply: 16

Query: State the recorded MIC for this entry: `C[C@@H](O)[C@H]1C(=O)N2C(C(=O)O)=C(CSC[C@@H](N)C(=O)O)S[C@H]12`
Reply: 2

Query: State the recorded MIC for this entry: `C[C@@H](O)[C@H]1C(=O)N2C(C(=O)O)=C(CSC[C@H](N)C(=O)O)S[C@H]12`
Reply: 8

Query: State the recorded MIC for this entry: C[C@@H](O)[C@H]1C(=O)N2C(C(=O)O)=C(COC(N)=O)S[C@H]12 [RITIPENEM]
Reply: 2

Query: State the recorded MIC for this entry: `C[C@@H](O)[C@H]1C(=O)N2C(C(=O)O)=C([C@H](N)CCC(=O)O)S[C@H]12`
Reply: 16

Query: State the recorded MIC for this entry: `C[C@@H](O)[C@H]1C(=O)N2C(C(=O)O)=C(CN)S[C@H]12`
Reply: 4
